Give measured apparent Kd for each item. Keep answers brief.
System: MS2 coat protein
Experiment: apparent Kd, MS2 coat protein; higher = weaker binding; RNA-MaP array; tryptophan 2.4 mM where present
Conditions: designed as: OFF switch for tryptophan; no ligand
Use nM as the unit, but write only the number.

Item: GAGGAAACUCACAUGAGGAUCACCCAUGUACGAGGACCGGUACGGCCGCCACUCGAAACCAUGGGCGGUAGUACAUGGAAACAUG | apparent Kd: 72.3

Item: UUCGUAUUGUCGGCCGCCACUGCAACAUGAGGAUCACCCAUGUAAAUUUGGGAGUAGUUAUAUUACAGGACCGGGACAAUAGUAA | apparent Kd: 102

Item: UAUUAUCAGUCGGCCGCCACUGUCACAUGAGGAUCACCCAUGUAACUUGGGUUAUAUUUAAUAUACAGGACCGGGACAAAGGCUA | apparent Kd: 58.6

Item: CUCAUCCACGCGGCCGCCACUAUAUUGUGGUGUGAGUGUGACGUAUUACAUGAGGAUCACCCAUGUAGGACCGGGCGUGGAUGAG | apparent Kd: 34.6

Item: ACGACGGCUGCGGCCGCCACUGUACAUGAGGAUCACCCAUGUGUAGUAAUUGGGACCCUGUGUUACAGGACCGGGUAGUUGAUUA | apparent Kd: 34.6

Item: AGACUUCGCAUAGGAAAACUAUGUGAAGUCCGAGGACCGGUACGGCCGCCACUCGUCCUCACAUGAGGAUCACCCAUGUAAAUAA | apparent Kd: 22.2

Item: GAACAGUCGGACAUGAGGAUCACCCAUGUGCGAGGACCGGUACGGCCGCCACUCGACAAGGGCGGUCCCGAAGCGAACAUACGCG | apparent Kd: 23.8
